Hello, the source for this data is paper PMC5540273, in case you need it.

# System: YANK2;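 note: KINOMEscan kinase panel screen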
# Construct: gene STK32B
# Measurement Conditions: concentration: 1 μM, replicates: in singlicate; n = 1
Reported Property: %Inh (%)
Please reply with the bare figure in % and do not write the unit itself.

COc1ccc(-n2cnc3c(N)ncnc32)cc1 ... 10
CC(C)(C)c1ccc(C(=O)Nc2cn3cc(-c4ccccc4)ccc3n2)cc1 ... 0

Input: Field: %Inh (YANK2). Entry: O=c1cc(N2CCOCC2)nc2n(Cc3ccc(F)c(Cl)c3)ccn12
Output: 11

Input: Field: %Inh (YANK2). Entry: COc1ccc(-c2coc3ccc(-c4nnc(SCc5cccc(C#N)c5)o4)cc23)cc1
Output: 12

Input: Field: %Inh (YANK2). Entry: CN1C(=O)C(Nc2ccccc2)=C(c2ccccc2)C1=O
Output: 2

Input: Field: %Inh (YANK2). Entry: OCCCNc1nccc(-c2c(-c3cccc(C(F)(F)F)c3)nn3cc(C(F)(F)F)ccc23)n1
Output: 0
